Origin of the recorded values: ChEMBL document CHEMBL5150062

protocol_text: 1-Octanol/PBS partition coefficient, logD of the compound at pH 7.4 incubated for 7 hrs by shake flask technique based HPLC-UV analysis
Assay type: physicochemical
reported_endpoint: logD at 7 h
The response must contain the number and no unit.

Recorded result, `NS(=O)(=O)c1cccc(Nc2nc(NCc3ccccc3)c3ccccc3n2)c1` , logD at 7 h: 3.87

Entry `CCCc1nn(C)c2c(=O)[nH]c(-c3cc(S(=O)(=O)N4CCN(C)CC4)ccc3OCC)nc12` ; logD at 7 h = 2.69

The value of logD at 7 h measured for the molecule `CC(C)N1CCC(Nc2nc(Nc3cccc(S(=O)(=O)N4CCN(C)CC4)c3)nc3ccccc23)CC1` turned out to be 2.15

What the record says about `NS(=O)(=O)c1cccc(Nc2nc(NC3CCN(Cc4ccccc4)CC3)c3nc[nH]c3n2)c1` : logD at 7 h is 2.16

Entry under test: `NS(=O)(=O)c1cccc(Nc2nc(NC3CCN(Cc4ccccc4)CC3)c3ccccc3n2)c1` . Its logD at 7 h was 3.37

----------
Species on record: Bos taurus
protocol_text: Inhibition of bovine heart PDE1 using [3H]cGMP as substrate at 10 uM incubated for 10 mins by liquid scintillation counter analysis relative to control
reported_endpoint: inhibition (%)
Field: numeric (%). Do not append units.

Lookup result for `CCCNc1nc(Nc2ccc(S(=O)(=O)N3CCN(C)CC3)cc2)nc2ccccc12` ; measured inhibition: 46.8

// inhibition lookup, molecule = `CC(C)N1CCC(Nc2nc(Nc3cccc(S(=O)(=O)N4CCN(C)CC4)c3)nc3ccccc23)CC1` , result: 28.2

inhibition for `NS(=O)(=O)c1cccc(Nc2nc(NC3CCN(Cc4ccccc4)CC3)c3nc[nH]c3n2)c1` is 31.2

Reported inhibition ( `NS(=O)(=O)c1cccc(Nc2nc(NC3CCN(Cc4ccccc4)CC3)c3ccccc3n2)c1` ) = 61.7

Looking up `NS(=O)(=O)c1cccc(Nc2nc(NCc3ccccc3)c3ccccc3n2)c1` , I found its inhibition recorded as 73.9

Notebook: `CC(C)CNc1nc(Nc2cccc(S(=O)(=O)N3CCN(C)CC3)c2)nc2ccccc12` , inhibition read as 67.2

Entry `CC(C)CNc1nc(Nc2ccc(S(=O)(=O)N3CCN(C)CC3)cc2)nc2ccccc12` ; inhibition = 44.8

----------
Answer each item with its documented pIC50.
Just the number, please; pIC50 means minus log10 of the concentration in mol/L.

The reported UniProt O76074 pIC50 of `CN(C)CCNc1nc(Nc2cccc(S(N)(=O)=O)c2)nc2ccccc12` is 5.03

Item: `CCCNc1nc(Nc2ccc(S(=O)(=O)N3CCN(C)CC3)cc2)nc2ccccc12` | System: UniProt O76074 | pIC50: 6.39

UniProt O76074 data for `CCCNc1nc(Nc2cccc(S(=O)(=O)N3CCN(C)CC3)c2)nc2ccccc12` ; its pIC50: 6.22

GET /values?item= `CC(C)CNc1nc(Nc2cccc(S(=O)(=O)N3CCN(C)CC3)c2)nc2ccccc12` &system= UniProt O76074 returns pIC50: 6.37

Kindly note: UniProt O76074, `COc1cc2nc(Nc3cccc(S(N)(=O)=O)c3)nc(NC3CCN(C(C)C)CC3)c2cc1OC` , pIC50 value reported: 5.47

Form field pIC50 for item `CC(C)N1CCC(Nc2nc(Nc3cccc(S(N)(=O)=O)c3)nc3ccccc23)CC1` on UniProt O76074: 5.99

Item: `CCCNc1nc(Nc2cccc(S(=O)(=O)N3CCN(C)CC3)c2)nc2c1ncn2C` | System: UniProt O76074 | pIC50: 4.36

pIC50 on UniProt O76074 for `NS(=O)(=O)c1cccc(Nc2nc(NC3CCN(Cc4ccccc4)CC3)c3nc[nH]c3n2)c1` is 6.54
